Measured Activity, listed per entry.
# Tested on: Left cardiac atrium
# ASSAY REMARKS: Inotropic activity in guinea pig left atrium assessed as change in isometric force of contraction at 5 X 10^-5 M relative to control
# Assay type: functional, Cavia porcellus
Answer with a number only, understood to be in %.

Worked cases, answers included:
For the molecule `C[C@]12CC[C@H]3[C@@H](CCC4=C[C@@H](O)CC[C@@]43C)[C@@H]1CC[C@@H]2/C=N\NC(=N)N` , what Activity is on record?
-18

For the molecule `C[C@]12CC[C@H](O)C[C@H]1CC[C@@H]1[C@@H]2CC[C@]2(C)[C@@H](/C=N\NC(=N)N)CC[C@@H]12` , what Activity is on record?
-45

Next:
For the molecule `C[C@]12CC[C@H](O)C[C@@H]1CC[C@@H]1[C@@H]2CC[C@]2(C)[C@@H](/C=N\NC(=N)N)CC[C@@H]12` , what Activity is on record?
-50

For the molecule `C[C@]12CC[C@@H](O)C[C@H]1CC[C@@H]1[C@@H]2CC[C@]2(C)[C@@H](/C=N\NC(=N)N)CC[C@@H]12` , what Activity is on record?
-10
